test: fluorescence interference in NS3h DNA assay – biochemical, ChemBridge library, Cy5 readout, artefact control for HCV NS3 helicase inhibitor project (AID 720488); settings: Cy5-dT15 DNA with NS3h, at 100 µM, actives lie on both sides, signal over control mean, under 1 quenches
The whole screen tested about 16,000 compounds, of which about 960 (6%) were called active. For the sample, actives were picked, then their nearest neighbours and some compounds at random.
Each entry below carries its reported fluorescence interference ratio.
Give a plain numeric answer without units written out.

Reported fluorescence interference ratio, molecule CCc1ccc(N2C(=O)/C(=C/c3cc(C)n(-c4cccnc4)c3C)C(=O)NC2=S)cc1 : ____
1.1

// same read-out, input: COc1ccccc1NC(=O)c1cc(Nc2ccccc2)nc2ccccc12
1.05

Request: O=C1C2C3C=CC(C3)C2C(=O)N1/N=C\c1cccc(I)c1 (stereo unspecified)
0.959

What about this molecule? Cc1cccc(N=C2NC(=O)CS2)c1C
1

Would you mind doing CCOC(=O)C1=C(C)N=c2s/c(=C/c3ccc(C(=O)OC)cc3)c(=O)n2C1c1ccc(OC(C)=O)cc1 (stereo unspecified) as well?
1.07

Field entry: CCN(CC)c1ccc(NC(=O)/C(=C\c2ccccc2)NC(C)=O)cc1
1.28

Same question, COc1ccccc1NC(=O)CN(c1cccc([N+](=O)[O-])c1)S(=O)(=O)c1ccccc1 this time
0.943

Another molecule: CC(C)Oc1ccc(/C=C(/NC(=O)c2ccccc2)C(=O)Nc2ccccc2)cc1
1.01

Let us now turn to CCC(=O)Nc1ccc(-c2nc3ccccc3o2)cc1
0.946

Same question, O=C(Nc1ccc(Cl)cc1C(O)c1ccccc1)c1cnn2c1NC(c1ccccc1)CC2C(F)(F)F (stereo unspecified) this time
0.956

---
Query (molecule): CC(=O)COc1ccc2c(-c3ccccc3)cc(=O)oc2c1 ; field requested: fluorescence interference ratio
0.969

Lookup O=C(NC(=S)Nc1ccc(-c2nc3cc(Cl)ccc3o2)cc1)c1ccco1
2.04

How about O=C(Nc1ccc(OC(F)(F)F)cc1)c1nn2c(c1Br)NC(c1cccs1)CC2C(F)(F)F (stereo unspecified) ?
1

Also need O=C(c1ccc(Cl)cc1)N1N=C(c2ccc(F)cc2)CC1(O)C(F)(F)F (stereo unspecified) , thanks.
0.933

Item: CCOc1ccc(-n2c(O)c(C=C3C=CC=N3)c(=O)[nH]c2=O)cc1
0.942

Ok, now O=C(CCN1C(=O)/C(=C/c2cccs2)SC1=S)NC12CC3CC(CC(C3)C1)C2
0.998

Taken from PubChem BioAssay AID720488.
